Origin of values: ChEMBL document CHEMBL1961873

Molecular target: Phosphatidylinositol 4-kinase beta (Homo sapiens);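 also: values given are mean percent inhibition of PI4K-beta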
Settings: at 0.1 µM
assay_endpoint: inhibition (%)
Unit % implied. Number only.

- smiles_entry: "Fc1ccc(-c2ncn(C3CCNCC3)c2-c2ccnc(Oc3ccc(Oc4ccccc4)cc3)n2)cc1"
  inhibition, %: -2.22
- smiles_entry: "Fc1ccc(-c2c(-c3ccncc3)nc3n2CCS3)cc1"
  inhibition, %: -2.06
- smiles_entry: "NC(=O)c1cc(-c2ccncc2)cc(-c2ccccc2)c1N"
  inhibition, %: 0.64

Lookup result for O=C1Nc2ccc(I)cc2C1=Cc1cc(Br)c(O)c(Br)c1 ; measured inhibition: -3.41

Lookup result for CN(C)CCCNc1nccc(-c2c(-c3ccc(F)cc3)nn3cc(C(F)(F)F)ccc23)n1 ; measured inhibition: -3.83

----------
Molecular target: Epidermal growth factor receptor (Homo sapiens) (UniProt P00533)
Sequence (P00533 whole entry): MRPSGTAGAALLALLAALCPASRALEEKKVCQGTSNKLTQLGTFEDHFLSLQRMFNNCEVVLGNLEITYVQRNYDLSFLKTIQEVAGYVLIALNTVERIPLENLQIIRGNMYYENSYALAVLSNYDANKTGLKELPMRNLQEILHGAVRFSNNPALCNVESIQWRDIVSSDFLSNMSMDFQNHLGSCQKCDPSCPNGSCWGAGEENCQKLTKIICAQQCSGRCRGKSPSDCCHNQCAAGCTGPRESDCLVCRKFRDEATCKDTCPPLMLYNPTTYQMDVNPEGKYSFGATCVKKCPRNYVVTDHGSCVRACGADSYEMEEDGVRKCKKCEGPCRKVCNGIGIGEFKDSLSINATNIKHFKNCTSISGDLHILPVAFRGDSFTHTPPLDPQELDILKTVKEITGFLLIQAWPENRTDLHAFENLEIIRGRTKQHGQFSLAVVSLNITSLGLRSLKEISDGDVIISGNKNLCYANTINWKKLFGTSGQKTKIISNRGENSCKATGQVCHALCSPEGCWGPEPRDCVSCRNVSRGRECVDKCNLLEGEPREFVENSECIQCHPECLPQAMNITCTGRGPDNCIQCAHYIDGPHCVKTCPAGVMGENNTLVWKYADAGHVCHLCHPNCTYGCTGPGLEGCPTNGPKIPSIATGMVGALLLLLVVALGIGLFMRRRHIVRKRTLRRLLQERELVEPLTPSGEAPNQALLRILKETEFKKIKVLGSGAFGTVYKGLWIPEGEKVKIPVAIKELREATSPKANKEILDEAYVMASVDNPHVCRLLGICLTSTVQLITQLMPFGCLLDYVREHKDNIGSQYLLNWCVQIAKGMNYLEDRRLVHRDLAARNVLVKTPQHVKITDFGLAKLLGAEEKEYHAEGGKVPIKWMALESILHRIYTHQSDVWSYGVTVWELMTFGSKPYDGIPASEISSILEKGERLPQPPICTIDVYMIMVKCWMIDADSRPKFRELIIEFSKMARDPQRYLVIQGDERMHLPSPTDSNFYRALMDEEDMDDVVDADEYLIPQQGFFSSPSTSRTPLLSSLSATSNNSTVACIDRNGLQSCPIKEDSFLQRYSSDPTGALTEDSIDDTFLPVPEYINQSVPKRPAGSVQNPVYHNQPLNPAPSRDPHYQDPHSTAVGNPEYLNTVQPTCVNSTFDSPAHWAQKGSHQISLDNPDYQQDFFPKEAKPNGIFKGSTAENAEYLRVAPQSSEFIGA
Conditions: at 0.1 µM
Description: GSK_PKIS: EGFR mean inhibition at 0.1 uM [Nanosyn]
inhibition listing for selected molecules.
Unit % implied. Number only.

Example results:
- smiles_entry: "Cc1ccc(NC(=O)c2ccoc2)cc1-c1ccc(C(=O)NCC2CC2)cc1"
  study_system: "Epidermal growth factor receptor (Homo sapiens) (UniProt P00533)"
  inhibition / %: 3.14
- smiles_entry: "Fc1ccc(-c2ncn(CCCN3CCOCC3)c2-c2ccncc2)cc1"
  study_system: "Epidermal growth factor receptor (Homo sapiens) (UniProt P00533)"
  inhibition / %: 0.44
- smiles_entry: "O=C(Nc1n[nH]c2cc(-c3cc(F)ccc3F)ccc12)C1CC1"
  study_system: "Epidermal growth factor receptor (Homo sapiens) (UniProt P00533)"
  inhibition / %: 1.18
- smiles_entry: "O=C1Nc2ccc(I)cc2C1=Cc1cc(Br)c(O)c(Br)c1"
  study_system: "Epidermal growth factor receptor (Homo sapiens) (UniProt P00533)"
  inhibition / %: 2.85
- smiles_entry: "CCN(CC)Cc1ccc(Nc2nccc(-c3cnn4ncccc34)n2)cc1"
  study_system: "Epidermal growth factor receptor (Homo sapiens) (UniProt P00533)"
  inhibition / %: -1.99

Lookup result for N#Cc1ccc(Oc2nccc(-c3c(-c4ccc(F)cc4)ncn3C3CCNCC3)n2)cc1 ; measured inhibition: -1.1

Lookup result for CN(c1ccc(NC(=O)Nc2c(Cl)cccc2Cl)cc1)c1ccnc(Nc2cccc(CS(C)(=O)=O)c2)n1 ; measured inhibition: 2.38

Lookup result for NC(=O)c1ccc(Oc2nccc(-c3c(-c4ccc(F)cc4)ncn3C3CCNCC3)n2)cc1 ; measured inhibition: 0.48

Lookup result for CCS(=O)(=O)c1ccc(OC)c(Nc2ncc(-c3cccc(-c4ccccc4F)c3)o2)c1 ; measured inhibition: 4.07

Lookup result for Cc1nnc(-c2ccc(C)c(-c3ccc(C(=O)NCc4ccc(Cl)cc4)cc3)c2)o1 ; measured inhibition: -3.58

----------
inhibition listing for selected molecules.
Target: Tyrosine-protein kinase ZAP-70 (Homo sapiens) (UniProt P43403);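 also: values are mean percent inhibition of ZAP-70 kinase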
Sequence (P43403 whole entry): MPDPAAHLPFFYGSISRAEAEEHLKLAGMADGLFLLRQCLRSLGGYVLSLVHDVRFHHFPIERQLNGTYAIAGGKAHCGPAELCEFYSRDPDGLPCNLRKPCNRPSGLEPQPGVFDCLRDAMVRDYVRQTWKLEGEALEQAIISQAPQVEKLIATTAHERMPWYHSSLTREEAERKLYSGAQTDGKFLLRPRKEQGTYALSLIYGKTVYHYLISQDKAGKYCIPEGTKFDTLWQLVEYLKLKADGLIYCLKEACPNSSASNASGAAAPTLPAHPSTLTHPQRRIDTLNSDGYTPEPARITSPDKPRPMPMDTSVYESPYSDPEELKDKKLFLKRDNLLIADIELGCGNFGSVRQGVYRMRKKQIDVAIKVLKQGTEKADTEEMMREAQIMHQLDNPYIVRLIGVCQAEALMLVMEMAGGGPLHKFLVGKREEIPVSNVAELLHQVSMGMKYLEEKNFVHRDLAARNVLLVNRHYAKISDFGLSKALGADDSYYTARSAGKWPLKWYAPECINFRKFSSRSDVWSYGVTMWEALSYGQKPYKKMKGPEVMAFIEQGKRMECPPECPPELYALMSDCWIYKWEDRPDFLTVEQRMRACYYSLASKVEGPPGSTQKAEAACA
Conditions: at 0.1 µM
Unit % implied. Number only.

Example results:
- smiles_entry: "Cc1ccc(C(=O)NC(C)C)cc1-c1ccc(C(=O)NCC2CC2)cc1"
  measured_result: -5.65
- smiles_entry: "Fc1ccc(-c2ncn(C3CCNCC3)c2-c2ccnc(Oc3ccc4c(c3)OCO4)n2)cc1"
  measured_result: 0.26
- smiles_entry: "C#Cc1cccc(Nc2ncnc3ccc(OCCCCNCCS(C)(=O)=O)cc23)c1"
  measured_result: -1.39
- smiles_entry: "NC(=O)c1cc(-c2ccncc2)cc(-c2ccccc2)c1N"
  measured_result: 4.11
- smiles_entry: "Fc1ccc(-c2ncn(CCCN3CCOCC3)c2-c2ccncc2)cc1"
  measured_result: 3.48

Now, please, on to the next molecule.
Assay Tyrosine-protein kinase ZAP-70 (Homo sapiens) (UniProt P43403), sample O=C1Nc2ccccc2/C1=C/Nc1ccc(-n2cncn2)cc1 , inhibition read: 4.53
